Test system: soybean plantlets
Assay: High-throughput soybean screening for herbicide tolerance (plantlets)
Format: in vivo, soybean (A3555)
Design: key: 0 for poor tolerance, high damage, low green coloration; 1 for some tolerance, average damage, moderate green coloration; 2 for good tolerance, low damage, high green coloration
Details: TP13; S-3100 spray five weeks post-transformation, scored day four
# coloration score per record follows
measured.endpoint: coloration score

* H_N100: microbial HemG protoporphyrinogen oxidase, SEQ ID NO:9 (SEQ ID NO:17 lacking start methionine; variant 20) (protein, listed as Enterobacter cloacae) MKTLILFSTRDGQTREIAAFLASELKEQGIYADVINLNRTEEIAWQEYDRVVIGASIRYGHFHPAVDRFVKKHTETLNSLPGAFFSVNLVARKAEKRTPQTNSYTRKFLLNSPWKPAACAVFAGALRYPRYRWYDRFMIRLIMKMTGGETDTRKEVVYTDWSQVASFAREIVQLTRSSRL | 0
* H_N40: microbial HemG protoporphyrinogen oxidase, SEQ ID NO:6 (SEQ ID NO:15 lacking start methionine) (protein, listed as Pectobacterium carotovorum) MKALIVFSSRDGQTRAIASYIANTLKGTLECDVVNVLNANDIDLSQYDRVAIGASIRYGRFHPAVNQFIRKHLTSLQQLPSAFFSVNLTARKPEKRTIQTNAYTRKFLLNSPWQPDLCCVFAGALRYPRYRWFDRVMIQLIMRITGGETDSTKEIEYTDWQQVARFAQDFAQLAAKNPA | 1
* H_N90: microbial HemG protoporphyrinogen oxidase, SEQ ID NO:1 (SEQ ID NO:11 lacking start methionine; variants 18, 19) (protein, listed as Enterobacter cloacae) MKALVLYSTRDGQTHAIASYIASCMKEKAECDVIDLTHGEHVNLTQYDQVLIGASIRYGHFNAVLDKFIKRNVDQLNNMPSAFFCVNLTARKPEKRTPQTNPYVRKFLLATPWQPALCGVFAGALRYPRYRWIDKVMIQLIMRMTGGETDTSKEVEYTDWEQVKKFAEDFAKLSYKKAL | 2
* H_N20: microbial HemG protoporphyrinogen oxidase, SEQ ID NO:2 (SEQ ID NO:12 lacking start methionine) (protein, listed as Pantoea ananatis) MKALILFSTRDGQTQKIASAIADEIKGQQSCDVINIQDAKTLDWQQYDRVLIGASIRYGHFQPVVNEFVKHNLLALQQRVSGFFSVNLTARKPEKRSPETNAYTVKFLAQSPWQPDCCAVFAGALYYPRYRWFDRVMIQFIMRMTGGETDASKEVEYTDWQQVQRFARDFAQLPGKSY | 2
* H_N50: microbial HemG protoporphyrinogen oxidase, SEQ ID NO:7 (SEQ ID NO:16 lacking start methionine) (protein, listed as Shimwellia blattae) MKTLILFSTRDGQTHKIARHIAGVLEEQGKACELVDLLQPGEPDWSTVECVVLGASIRYGHFHKSFIRFVNTHAQRLNNMPGALFTVNLVARKPEKQSPQTNSYTRKFLAASPWQPQRCQVFAGALRYPRYSWYDRMMIRLIMKMAGGETDTRKEVEYTDWQSVTRFAREIAQLPGETR | 1

These entries and their values trace back to patent US12123009B2.
